Readout Type: melting point

[[record]]
given_smiles = "CCCCCCCCCCCCCCCCOc1ccc(OCCCC(=O)Nc2ccc(SC)c(C(=O)O)c2)cc1"
reported_measurement = "197 to 202 °C"

[[record]]
given_smiles = "CCCCCCCCCCCCCCCCCCOc1ccc(CCC(=O)Nc2ccc(Nc3ccccc3C(=O)O)c(C(=O)O)c2)cc1"
reported_measurement = "247 to 252 °C"

[[record]]
given_smiles = "CCCCCCCCCCCCCCCCCCOc1ccc(CC(=O)N(C)c2ccc(SCCC)c(C(=O)O)c2)cc1"
reported_measurement = "76 to 80 °C"

[[record]]
given_smiles = "CCCCCCCCCCCCCCCCCC(=O)Nc1ccccc1CC(=O)Nc1ccc(SC)c(C(=O)O)c1"
reported_measurement = "247 to 250 °C"

[[record]]
given_smiles = "CCCCCCCCCCCCCCCCCCOc1ccc(CCC(=O)Nc2cc(C(=O)O)ccc2Sc2cccc(C(=O)O)c2)cc1"
reported_measurement = "246 to 248 °C"

[[record]]
given_smiles = "CCCCCCCCCCCCCCCCCCOc1ccc(CCC(=O)Nc2ccc(Oc3cccc(C(=O)O)c3)c(C(=O)O)c2)cc1"
reported_measurement = "201 to 205 °C"

[[record]]
given_smiles = "CCCCCCCCCCCCOc1ccc(OCCCCCCCC(=O)Nc2ccc(SC)c(C(=O)O)c2)cc1"
reported_measurement = "193 to 196 °C"

